tested on: Staphylococcus sp.; experiment: In vitro antibacterial evaluation: minimum inhibitory concentration (MIC), broth dilution method; type: cell-based; conditions: broth dilution, 5×10^5 CFU/mL, 18 hours at 35° C.
Description: […]
This listing pairs molecules with measured MIC Coagulase Negative Staphylococcus (GC 4548).
metricName: MIC Coagulase Negative Staphylococcus (GC 4548)

CC(c1ccccc1)C1NC(=O)CNC(=O)C(CO)NC(=O)C(C(O)C2CNC(=N)N2C2OC(CO)C(O)C(O)C2O)NC(=O)C(C(O)C2CNC(=N)N2)NC(=O)C(Cc2ccc(OC3OC(CO)C(OC4OC5COC(c6cccs6)OC5C(O)C4O)C(O)C3O)cc2)NC1=O (stereo not drawn) [Example 132]: 1 µg/mL
CC(c1ccccc1)C1NC(=O)CNC(=O)C(CO)NC(=O)C(C(O)C2CNC(=N)N2C2OC(CO)C(O)C(O)C2O)NC(=O)C(C(O)C2CNC(=N)N2)NC(=O)C(Cc2ccc(OC3OC(CO)C(OC4OC5COC(c6cccc(Cl)c6)OC5C(O)C4O)C(O)C3O)cc2)NC1=O (stereo not drawn) [Example 138]: 1 µg/mL
Cc1cccc(C2OCC3OC(OC4C(CO)OC(Oc5ccc(CC6NC(=O)C(C(C)c7ccccc7)NC(=O)CNC(=O)C(CO)NC(=O)C(C(O)C7CNC(=N)N7C7OC(CO)C(O)C(O)C7O)NC(=O)C(C(O)C7CNC(=N)N7)NC6=O)cc5)C(O)C4O)C(O)C(O)C3O2)c1 (stereo not drawn) [Example 135]: 0.5 µg/mL

Numbers sourced from patent US8247211B2.
